- target under test: WT HIV-1 RT (Human immunodeficiency virus type 1 group M subtype B)
- assay overview: Recombinant HIV-1 RT inhibitory assay
readout name: IC50 (nM)
Number only, in nM; omit the unit.

Sample records with IC50:
mol: COc1ccc(-c2cc(C)c(Oc3nc(NC4CCN(Cc5ccc(C(N)=O)cc5)CC4)nc4ccsc34)c(C)c2)cc1
unit string: nM
observed measurement: 233

mol: COc1ccc(-c2cc(C)c(Oc3nc(NC4CCN(Cc5ccc(S(N)(=O)=O)cc5)CC4)nc4ccsc34)c(C)c2)cc1
unit string: nM
observed measurement: 268

mol: Cc1cc(-c2ccccc2)cc(C)c1Oc1nc(NC2CCN(Cc3ccc(C(N)=O)cc3)CC2)nc2ccsc12
unit string: nM
observed measurement: 161

mol: Cc1cc(-c2ccc(N(C)C)cc2)cc(C)c1Oc1nc(NC2CCN(Cc3ccc(C(N)=O)cc3)CC2)nc2ccsc12
unit string: nM
observed measurement: 473

mol: Cc1cc(-c2cccs2)cc(C)c1Oc1nc(NC2CCN(Cc3ccc(S(N)(=O)=O)cc3)CC2)nc2ccsc12
unit string: nM
observed measurement: 227

Note: attention shifts to another entry.
Asked: Form field: reported IC50 of Cc1cc(-c2ccco2)cc(C)c1Oc1nc(NC2CCN(Cc3ccc(S(N)(=O)=O)cc3)CC2)nc2ccsc12
Given back: 243

====

- System: HIV-1 L100I mutant strain
- assay overview: microbe, parasite or virus in culture
- Format: cell-based
- test settings: CC50/EC50
Checkbox rule: SI L100I lower than 200 = True; SI L100I not lower than 200 = False.

compound: Cc1cc(-c2cccs2)cc(C)c1Oc1nc(NC2CCN(Cc3ccc(S(N)(=O)=O)cc3)CC2)nc2ccsc12 [Compound 15]
qualitative label: False

compound: Cc1cc(-c2cccc(N(C)C)c2)cc(C)c1Oc1nc(NC2CCN(Cc3ccc(C(N)=O)cc3)CC2)nc2ccsc12 [Compound 32]
qualitative label: True

compound: Cc1cc(-c2cccc(C#N)c2)cc(C)c1Oc1nc(NC2CCN(Cc3ccc(C(N)=O)cc3)CC2)nc2ccsc12 [Compound 28]
qualitative label: True

compound: Cc1cc(-c2ccoc2)cc(C)c1Oc1nc(NC2CCN(Cc3ccc(S(N)(=O)=O)cc3)CC2)nc2ccsc12 [Compound 13]
qualitative label: True

Now examine the next entry.
Asked: State whether 200 exceeds SI L100I recorded for Cc1cc(-c2ccc(C#N)cc2)cc(C)c1Oc1nc(NC2CCN(Cc3ccc(C(N)=O)cc3)CC2)nc2ccsc12 [Compound 26] .
Given back: False

====

Each item that follows carries a reported EC50.
- Test system: HIV-2 strain (ROD)
- assay overview: Anti-HIV-2
- Format: cell-based
- test settings: Human immunodeficiency virus 2, MT4, read-out: EC50 ROD
Number only, in µM; omit the unit.

Sample records with EC50:
mol: Cc1cc(-c2ccco2)cc(C)c1Oc1nc(NC2CCN(Cc3ccc(S(N)(=O)=O)cc3)CC2)nc2ccsc12
target under test: HIV-2 strain (ROD)
observed measurement: 4.15

mol: Cc1cc(-c2cccs2)cc(C)c1Oc1nc(NC2CCN(Cc3ccc(S(N)(=O)=O)cc3)CC2)nc2ccsc12
target under test: HIV-2 strain (ROD)
observed measurement: 5.11

mol: Cc1cc(-c2ccccc2)cc(C)c1Oc1nc(NC2CCN(Cc3ccc(C(N)=O)cc3)CC2)nc2ccsc12
target under test: HIV-2 strain (ROD)
observed measurement: 3.84

Note: attention shifts to another entry.
Asked: Form field: reported EC50 of Cc1cc(-c2cccc(N(C)C)c2)cc(C)c1Oc1nc(NC2CCN(Cc3ccc(C(N)=O)cc3)CC2)nc2ccsc12
Given back: 4.66

====

- Test system: HIV-1 L100I mutant strain
- assay overview: microbe, parasite or virus in culture
- Assay type: cell-based
- test settings: CC50/EC50
readout name: SI L100I

Sample records with SI L100I:
compound: Cc1cc(-c2ccc(C#N)cc2)cc(C)c1Oc1nc(NC2CCN(Cc3ccc(S(N)(=O)=O)cc3)CC2)nc2ccsc12 [Compound 25]
SI L100I: 194
//
compound: Cc1cc(-c2ccsc2)cc(C)c1Oc1nc(NC2CCN(Cc3ccc(S(N)(=O)=O)cc3)CC2)nc2ccsc12 [Compound 17]
SI L100I: 203

Note: attention shifts to another entry.
Asked: Notebook entry, HIV-1 L100I mutant strain assay: SI L100I of Cc1cc(-c2cccs2)cc(C)c1Oc1nc(NC2CCN(Cc3ccc(C(N)=O)cc3)CC2)nc2ccsc12 [Compound 16] = ?
Given back: ≥ 28

====

- System: HIV-2 strain (ROD)
- assay overview: Anti-HIV-2
- Format: cell-based
- test settings: Human immunodeficiency virus 2, MT4, read-out: EC50 ROD
Each item that follows carries a reported EC50.

compound: Cc1cc(-c2cccc(N(C)C)c2)cc(C)c1Oc1nc(NC2CCN(Cc3ccc(S(N)(=O)=O)cc3)CC2)nc2ccsc12 [Compound 31]
EC50: > 110 µM

compound: Cc1cc(-c2ccsc2)cc(C)c1Oc1nc(NC2CCN(Cc3ccc(C(N)=O)cc3)CC2)nc2ccsc12 [Compound 18]
EC50: > 17 µM

compound: Cc1cc(-c2ccc(N(C)C)cc2)cc(C)c1Oc1nc(NC2CCN(Cc3ccc(S(N)(=O)=O)cc3)CC2)nc2ccsc12 [Compound 29]
EC50: > 18.4 µM

Asked: Form field: reported EC50 of COc1ccc(-c2cc(C)c(Oc3nc(NC4CCN(Cc5ccc(S(N)(=O)=O)cc5)CC4)nc4ccsc34)c(C)c2)cc1 [Compound 21]
Given back: > 16.6 µM

Asked: Also need Cc1cc(C#N)cc(C)c1Oc1nc(Nc2ccc(C#N)cc2)nc(N)c1Br [ETR, Etravirine, reference compound] , thanks.
Given back: > 4.59 µM
